assay.system: T1, Dimeric Human Ang-2FD conjugated to human IgG1 (human)
T1 construct: also called Human Ang-2FD-hFc; hAng-2FD-hFc
T1 sequence (chain, as listed by the source limits assumed): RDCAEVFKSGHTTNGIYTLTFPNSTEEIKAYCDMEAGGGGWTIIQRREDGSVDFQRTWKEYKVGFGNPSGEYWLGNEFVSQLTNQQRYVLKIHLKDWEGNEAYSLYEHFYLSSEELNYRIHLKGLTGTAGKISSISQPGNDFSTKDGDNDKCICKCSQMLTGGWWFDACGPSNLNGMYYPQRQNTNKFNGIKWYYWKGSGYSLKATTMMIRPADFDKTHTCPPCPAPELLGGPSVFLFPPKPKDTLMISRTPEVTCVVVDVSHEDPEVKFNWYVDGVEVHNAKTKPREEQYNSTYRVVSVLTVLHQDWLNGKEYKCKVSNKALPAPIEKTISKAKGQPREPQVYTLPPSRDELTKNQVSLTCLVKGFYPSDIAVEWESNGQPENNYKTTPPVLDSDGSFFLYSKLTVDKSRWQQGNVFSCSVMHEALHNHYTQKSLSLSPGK
assay.notes: SPR, captured Ab, RT

{"columns": ["binder", "Kd [nM]"],
 "data": [
  ["H1H724N (antibody, V domains shown) VH: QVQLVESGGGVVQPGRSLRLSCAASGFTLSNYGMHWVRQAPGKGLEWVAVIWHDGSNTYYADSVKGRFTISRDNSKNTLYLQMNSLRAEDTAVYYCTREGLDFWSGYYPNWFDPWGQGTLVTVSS VL: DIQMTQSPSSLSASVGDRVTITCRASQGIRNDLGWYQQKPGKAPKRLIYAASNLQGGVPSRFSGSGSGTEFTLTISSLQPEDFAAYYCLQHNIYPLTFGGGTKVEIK", 0.115]
]}
